molecular target: HLA-A2.1 molecules (Homo sapiens, UniProt P04439, D140Y/D185E/D98H/E176V/E277Q/G131W/G231S/I119V/I121R/I166T/I218V/L300P/L318F/N151K/N90K/P208A/P217A/Q86G/Q94H/R138H/R169H/T345S); construct: Using TAP-deficient, HLA-A2.1^+ T2 cells, we evaluated these parameters in an immunofluorescence assay; endogenous in cells; host or cells: T2 cells (TAP-deficient, HLA-A2.1+); assay type: binding; conditions: wild-type HIV 1 peptides; T2 cells, 37° C., brefeldine A
property-name: DC (half-life of stabilized peptide-HLA-A2.1 complexes, DC 50)

>>> recorded_value("LLDTGADDTV [L10V]")
"< 2 h"
>>> recorded_value("EMMTACQGV [E9V]")
"< 2 h"
>>> recorded_value("VLDVGDAYFSV [V11V]")
"2 h"
>>> recorded_value("KLTPLCVSL [K9L, HIV 1 ENV gp120 (120-128) CD8 epitopic peptide]")
"> 6 h"

* * *

tested on: HHD-transfected RMA-S cells loaded with relevant peptide; assay: CTL response of HHD mice injected s.c. with tumor epitopic peptide in IFA (51Cr-release assay); assay type: in vivo; conditions: peptide s.c. in IFA, no helper, responder = at least 10% specific lysis
property-name: R/T (responder versus tested mice)

>>> recorded_value("FLWGPRALV [MAGE-3.271]")
"1/6"
>>> recorded_value("VLYRYGSFSV [gp100.476, gp100 476-485 human melanoma epitopic peptide]")
"2/6"
>>> recorded_value("ILTVILGVL [Melan-A/MART-1.32, Melan-A/MART-1 32-40 epitopic peptide]")
"0/6"
>>> recorded_value("YMDGTMSQV [Tyrosinase.368-D]")
"1/6"
>>> recorded_value("KTWGQYWQV [gp100.154]")
"4/6"
>>> recorded_value("TLGIVCPI [HPV E7.86, HPV16 E7 86-93 epitopic peptide]")
"0/6"
>>> recorded_value("YLEPGPVTA [gp100.280]")
"3/16"
>>> recorded_value("LLDGTATLRL [gp100.457]")
"0/6"
>>> recorded_value("MLLAVLYCL [Tyrosinase.1, Tyrosinase 1-9 epitopic peptide]")
"0/10"
>>> recorded_value("YMNGTMSOV [Tyrosinase.368-N]")
"4/15"
>>> recorded_value("STPPPGTRV [p53.149, p53 149-157 epitopic peptide]")
"0/6"

* * *

Reported Responder/tested mice is given for each of the following sequences.
system: peptide-pulsed HHD-transfected RMAS cells; type: in vivo, HHD mice; conditions: with helper peptide; 50 μg CD8 + 140 μg HBV core T13L in IFA
property-name: Responder/tested mice

>>> recorded_value("KLTPLCVSL [K9L, HIV 1 ENV gp120 (120-128) CD8 epitopic peptide]")
"4/6"
>>> recorded_value("PLVKLWYQL [P9L, HIV 1 POL (576-584) CD8 epitopic peptide]")
"0/6"
>>> recorded_value("VLDVGDAYFSV [V11V]")
"2/6"
>>> recorded_value("VIYQYMDDL [V9L, HIV 1 POL (334-342) CD8 epitopic peptide]")
"1/6"
>>> recorded_value("EMMTACQGV [E9V]")
"0/6"
>>> recorded_value("ILKEPVHGV [I9V]")
"5/6"
>>> recorded_value("LLDTGADDTV [L10V]")
"0/6"
>>> recorded_value("RLRDLLLIV [R9V, HIV 1 ENV gp41 (260-268) CD8 epitopic peptide]")
"0/6"
>>> recorded_value("ALVEICTEM [A9M, HIV 1 POL (188-196) CD8 epitopic peptide]")
"1/6"
>>> recorded_value("AFHHVAREL [A9L, HIV 1 NEF (188-196) CD8 epitopic peptide]")
"0/6"
>>> recorded_value("PLTFGWCFKL [P10L, HIV 1 NEF (134-143) CD8 epitopic peptide]")
"0/6"
>>> recorded_value("TLNAWVKVV [T9V]")
"3/5"

* * *

tested on: HHD-transfected RMA-S cells loaded with relevant peptide; assay: CTL response of HHD mice injected s.c. with tumor epitopic peptide in IFA (51Cr-release assay); format: in vivo; settings: peptide s.c. in IFA, no helper, responder = at least 10% specific lysis
property-name: R/T (responder versus tested mice)

>>> recorded_value("ITDQVPFSV [gp100.209]")
"1/6"
>>> recorded_value("IISAVVGIL [Her2/neu.654, Her2/neu 654-662 epitopic peptide]")
"1/6"
>>> recorded_value("YLSGANLNL [CEA.571, CEA 571-579 epitopic peptide]")
"6/6"
>>> recorded_value("RMPEAAPPV [p53.65, p53 65-73 epitopic peptide]")
"4/6"
>>> recorded_value("LLGRNSFEV [p53.264]")
"0/7"
>>> recorded_value("VLPDVFIRC [NA17-A.nt38, NA17-A nt38-64 epitopic peptide]")
"4/7"

* * *

biological target: HLA-A2.1 molecules (Homo sapiens, UniProt P04439, D140Y/D185E/D98H/E176V/E277Q/G131W/G231S/I119V/I121R/I166T/I218V/L300P/L318F/N151K/N90K/P208A/P217A/Q86G/Q94H/R138H/R169H/T345S); construct: Using TAP-deficient, HLA-A2.1^+ T2 cells, we evaluated these parameters in an immunofluorescence assay; endogenous in cells; host or cells: T2 cells (TAP-deficient, HLA-A2.1+); assay type: binding; conditions: wild-type HIV 1 peptides; reference I9V; T2 cells
property-name: RA (relative affinity)

>>> recorded_value("KLTPLCVSL [K9L, HIV 1 ENV gp120 (120-128) CD8 epitopic peptide]")
1.35
>>> recorded_value("LLDTGADDTV [L10V]")
10
>>> recorded_value("VLDVGDAYFSV [V11V]")
4.5
